All figures here come from the supplement of paper PMC4466140.

- assayed_system: CaSla1-D1-D2
- test_method_notes: SPOT peptide array binding signal intensity (averaged, normalized) (arbitrary units (background-subtracted, floor 0; scale differs between SH3 domains)); higher = stronger binding of the SH3 domain to the peptide
Label rule, in plain words: SPOT peptide array binding signal intensity of 200 and up is true, under 200 is false.

Query :: Dear colleague, could you confirm whether `GKKVRPLLVLLLSRA` has SPOT peptide array binding signal intensity at or above 200?
Result :: false
